Cited source for all entries: PubChem BioAssay AID1963835

# Lookup of reported viability, T/C keyed by entry
# Test system: 699152-130-R-J1-PDC complex spheroid viability;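 also: spheroids exposed to agents for 7 days before viability reading; percent of DMSO vehicle control viability so 100% = vehicle and 0% = no viable signal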
# test method notes: Anticancer human tumor 699152-130-R-J1-PDC patient-derived pancreatic carcinoma cell line growth inhibition [POLQ]
# condition label: second compound 0.0316 µM; first compound 0.001 µM; stronger effect = lower value
Express your answer in %, writing the number without its unit.

CC[C@@]1(O)C(=O)OCc2c1cc1n(c2=O)Cc2cc3c(CN(C)C)c(O)ccc3nc2-1 + Cc1cccc(N(C)C(=O)C2C(O)CCN2c2nc(C)cc(C(F)(F)F)c2C#N)c1: 118
Cn1ncnc1[C@H]1c2n[nH]c(=O)c3cc(F)cc(c23)N[C@@H]1c1ccc(F)cc1 + Nc1ccc(C#CCN(C(=O)Cc2ncc(C(F)(F)F)cc2C(F)(F)F)c2ccc(F)cc2)nn1: 86.8

Proceed to the following item.
stdin: Output measured viability, T/C for this item: CC[C@@]1(O)C(=O)OCc2c1cc1n(c2=O)Cc2cc3c(CN(C)C)c(O)ccc3nc2-1 + Nc1ccc(C#CCN(C(=O)Cc2ncc(C(F)(F)F)cc2C(F)(F)F)c2ccc(F)cc2)nn1
stdout: 106
